Tested on: breast cancer cells (MCF7 cells)
Assay: Clonogenic cytotoxicity assay, breast cancer cells
Assay type: cell-based
Details: Homo sapiens, cell line not named in the sentence (FIG. 9: MCF7 and 184A1)
parameter_measured: pIC50
Formally, pIC50 is defined as -log10 of the concentration c, with c in mol/L.

Recorded pIC50 for `Cc1c(C(=O)NCCCCCC(=O)NO)[nH]c2ccccc12` , please? 6.56

###

System: pan-HDACs
Experiment: Pan-HDAC assay (Fluor-de-Lys fluorometric kit, HeLa Nuclear Extract)
Format: biochemical
Settings: values are average EC50, read-out: EC50 against pan-HDACs
Method: Certain compounds of the invention were tested in a pan-HDAC assay to determine the ability of such compounds to inhibit HDAC protein. […] Materials: Enzo Fluor-de-Lys HDAC fluorometric activity assay kit; 360 nm excitation 460 nm emission Plate Reader; Disposable pipettes; Pipet-aid; Pipette tips; Micro-pipetter; DMSO; Sterile micro-tubes and conical tubes; and Micro-centrifuge. […]
So I've got a bunch of compounds here, and I need their pEC50 values.
Formally, pEC50 is defined as -log10 of the concentration c, with c in mol/L.

Recorded pEC50 for `Cc1[nH]c2ccccc2c1CCNC(=O)CCCCCCC(=O)NO` , please? 6.95

Recorded pEC50 for `Cc1c(C(=O)NCCCCCC(=O)NO)[nH]c2ccccc12` , please? 7.53

Recorded pEC50 for `CN(C)c1cccc2c(S(=O)(=O)N3c4ccccc4C[C@H]3C(=O)NCCCCCC(=O)NO)cccc12` , please? 7.60

Recorded pEC50 for `Cc1ccc(S(=O)(=O)N2c3ccccc3C[C@H]2C(=O)NCCCCCC(=O)NO)cc1` , please? 6.58

// data source = patent US10745352B2
